- Procedure summary: Half life in Sprague-Dawley rat at 2 mg/kg, iv
- Format: ADME, organism-based
- Condition notes: in vivo
Parameter measured: half-life (h)

[[record]]
chemical_structure = "CCCC[C@H](CN(O)C=O)C(=O)N1CC2(CC2)C[C@H]1c1nc2ccccc2[nH]1"
measurement = 5.23

[[record]]
chemical_structure = "CCCC[C@H](CN(O)C=O)C(=O)N1CC2(CC2)C[C@H]1C(=O)Nc1ncc(C)s1"
measurement = 1.14

[[record]]
chemical_structure = "CCCC[C@H](CN(O)C=O)C(=O)N1CC2(CC2)C[C@H]1c1nc(-c2cccnc2)no1"
measurement = 1.11

[[record]]
chemical_structure = "CCCC[C@H](CN(O)C=O)C(=O)N1CC2(CC2)C[C@H]1C(=O)Nc1ccc(F)c[n+]1[O-]"
measurement = 3.63

[[record]]
chemical_structure = "CCCC[C@H](CN(O)C=O)C(=O)N1CC2(CC2)C[C@H]1C(=O)Nc1cc(C(C)(C)C)on1"
measurement = 1.23

[[record]]
chemical_structure = "CCCC[C@H](CN(O)C=O)C(=O)N1CC2(CC2)C[C@H]1C(=O)Nc1ccc(C)c(Nc2nccc(-c3cccnc3)n2)c1"
measurement = 3.6

